assay: Plasma exposures following oral administration to beagle dogs; settings: male, beagle, dog, in vivo, po, 5 mg/kg, EFdA Concentrations in Dog Plasma, EFdA PO 5 mg/kg; 4.00 hrs; Mean
measurement_name: concentration at 4 h (ng/mL)
Answers are plain numbers, in ng/mL.

Recorded result, C#C[C@]1(CO)O[C@@H](n2cnc3c(N)nc(F)nc32)C[C@@H]1O [Formula T-1A, reference compound] , concentration at 4 h: 12.3

====

assay: Plasma exposures following oral administration to beagle dogs; conditions: male, beagle, dog, in vivo, po, 8.25 mg/kg, Prodrug formula 4-A Concentrations in Dog Plasma, Prodrug formula 4-A PO 8.25 mg/kg; 0.250 hrs; individual animals
measurement_name: concentration at 0.25 h (ng/mL)
Give bare numbers, in ng/mL.

Recorded result, "C#C[C@]1(COC(=O)OCc2oc(=O)oc2C)O[C@@H](n2cnc3c(N)nc(F)nc32)C[C@@H]1O" , concentration at 0.25 h: 1.13

====

assay: Plasma exposures following oral administration to beagle dogs; details: male, beagle, dog, in vivo, po, 5 mg/kg, EFdA Concentrations in Dog Plasma, EFdA PO 5 mg/kg; 2.00 hrs; individual animals
measurement_name: concentration at 2 h (µg/mL)
Answers are plain numbers, in µg/mL.

Recorded result, C#C[C@]1(CO)O[C@@H](n2cnc3c(N)nc(F)nc32)C[C@@H]1O [Formula T-1A, reference compound] , concentration at 2 h: 0.211

====

test: Plasma exposures following IV infusion alone or in combination to Sprague-Dawley rats; settings: male, Sprague-Dawley, rat, in vivo, Lenacapavir Concentrations in Rat Plasma When Dosed with Prodrug formula 4-A, Lenacapavir IV infusion 1.0 mg/kg with Prodrug formula 4-A; 0.500 hrs; Mean
measurement_name: concentration at 0.5 h (ng/mL)
One number for each entry, in ng/mL.

Recorded result, CC(C)(C#Cc1ccc(-c2ccc(Cl)c3c(NS(C)(=O)=O)nn(CC(F)(F)F)c23)c([C@H](Cc2cc(F)cc(F)c2)NC(=O)Cn2nc(C(F)(F)F)c3c2C(F)(F)[C@@H]2C[C@H]32)n1)S(C)(=O)=O [Lenacapavir, reference compound] , concentration at 0.5 h: 645

====

test: Plasma exposures following IV infusion alone or in combination to Sprague-Dawley rats; details: male, Sprague-Dawley, rat, in vivo, 1 mg/kg, Lenacapavir Concentrations in Rat Plasma When Dosed Alone, Lenacapavir IV infusion 1.0 mg/kg alone; 1.00 hrs; Mean
measurement_name: concentration at 1 h (ng/mL)
Numbers only, in ng/mL.

Recorded result, CC(C)(C#Cc1ccc(-c2ccc(Cl)c3c(NS(C)(=O)=O)nn(CC(F)(F)F)c23)c([C@H](Cc2cc(F)cc(F)c2)NC(=O)Cn2nc(C(F)(F)F)c3c2C(F)(F)[C@@H]2C[C@H]32)n1)S(C)(=O)=O [Lenacapavir, reference compound] , concentration at 1 h: 222

====

assay: Plasma exposures following IV infusion alone or in combination to Sprague-Dawley rats; conditions: male, Sprague-Dawley, rat, in vivo, 1 mg/kg, Lenacapavir Concentrations in Rat Plasma When Dosed Alone, Lenacapavir IV infusion 1.0 mg/kg alone; 4.00 hrs; Mean
measurement_name: concentration at 4 h (ng/mL)
Numbers only, in ng/mL.

Recorded result, CC(C)(C#Cc1ccc(-c2ccc(Cl)c3c(NS(C)(=O)=O)nn(CC(F)(F)F)c23)c([C@H](Cc2cc(F)cc(F)c2)NC(=O)Cn2nc(C(F)(F)F)c3c2C(F)(F)[C@@H]2C[C@H]32)n1)S(C)(=O)=O [Lenacapavir, reference compound] , concentration at 4 h: 156

====

assay: Plasma exposures following IV infusion alone or in combination to Sprague-Dawley rats; conditions: male, Sprague-Dawley, rat, in vivo, Lenacapavir Concentrations in Rat Plasma When Dosed with Prodrug formula 4-A, Lenacapavir IV infusion 1.0 mg/kg with Prodrug formula 4-A; 4.00 hrs; Mean
measurement_name: concentration at 4 h (ng/mL)
One number for each entry, in ng/mL.

Recorded result, CC(C)(C#Cc1ccc(-c2ccc(Cl)c3c(NS(C)(=O)=O)nn(CC(F)(F)F)c23)c([C@H](Cc2cc(F)cc(F)c2)NC(=O)Cn2nc(C(F)(F)F)c3c2C(F)(F)[C@@H]2C[C@H]32)n1)S(C)(=O)=O [Lenacapavir, reference compound] , concentration at 4 h: 93.5

====

assay: Plasma exposures following oral administration to beagle dogs; conditions: male, beagle, dog, in vivo, po, 5 mg/kg, EFdA Concentrations in Dog Plasma, EFdA PO 5 mg/kg; 0.500 hrs; individual animals
measurement_name: concentration at 0.5 h (ng/mL)
Numbers only, in ng/mL.

Recorded result, C#C[C@]1(CO)O[C@@H](n2cnc3c(N)nc(F)nc32)C[C@@H]1O [Formula T-1A, reference compound] , concentration at 0.5 h: 391

====

Assay: Plasma exposures following IV infusion alone or in combination to Sprague-Dawley rats
Conditions: male, Sprague-Dawley, rat, in vivo, Lenacapavir Concentrations in Rat Plasma When Dosed with Prodrug formula 4-A, Lenacapavir IV infusion 1.0 mg/kg with Prodrug formula 4-A; 0.0830 hrs; Mean
Procedure: The pharmacokinetics of EFdA and prodrug formula 4-A, as well as lenacapavir were studied in rats after IV infusion administration alone or in combination at a dose of 1.0 mg/kg each. […] Bioanalysis: A Sciex API-6500 Plus triplequadrupole mass spectrometer coupled with a Waters Acquity UPLC system (Framingham, MA 01701) was used for quantitative analysis of plasma samples. […] Overall, Analyst® determined the precision and accuracy for the calibration standards and QC samples.
measurement_name: concentration at 0.083 h (ng/mL)
Answers are plain numbers, in ng/mL.

Recorded result, CC(C)(C#Cc1ccc(-c2ccc(Cl)c3c(NS(C)(=O)=O)nn(CC(F)(F)F)c23)c([C@H](Cc2cc(F)cc(F)c2)NC(=O)Cn2nc(C(F)(F)F)c3c2C(F)(F)[C@@H]2C[C@H]32)n1)S(C)(=O)=O [Lenacapavir, reference compound] , concentration at 0.083 h: 413

====

test: Plasma exposures following IV infusion alone or in combination to Sprague-Dawley rats; conditions: male, Sprague-Dawley, rat, in vivo, Lenacapavir Concentrations in Rat Plasma When Dosed with Prodrug formula 4-A, Lenacapavir IV infusion 1.0 mg/kg with Prodrug formula 4-A; 2.00 hrs; Mean
measurement_name: concentration at 2 h (ng/mL)
One number for each entry, in ng/mL.

Recorded result, CC(C)(C#Cc1ccc(-c2ccc(Cl)c3c(NS(C)(=O)=O)nn(CC(F)(F)F)c23)c([C@H](Cc2cc(F)cc(F)c2)NC(=O)Cn2nc(C(F)(F)F)c3c2C(F)(F)[C@@H]2C[C@H]32)n1)S(C)(=O)=O [Lenacapavir, reference compound] , concentration at 2 h: 127

====

assay: Plasma exposures following oral administration to beagle dogs; conditions: male, beagle, dog, in vivo, po, 8.25 mg/kg, Prodrug formula 4-A Concentrations in Dog Plasma, Prodrug formula 4-A PO 8.25 mg/kg; 0.500 hrs; Mean
measurement_name: concentration at 0.5 h
Write the numeric value and follow it with the unit.

Recorded result, C#C[C@]1(COC(=O)OCc2oc(=O)oc2C)O[C@@H](n2cnc3c(N)nc(F)nc32)C[C@@H]1O [Formula 4-A] , concentration at 0.5 h: 1.68 ng/mL

====

test: Plasma exposures following IV infusion alone or in combination to Sprague-Dawley rats; settings: male, Sprague-Dawley, rat, in vivo, iv, 1 mg/kg
measurement_name: Cmax (ng/mL)
Give bare numbers, in ng/mL.

Recorded result, CC(C)(C#Cc1ccc(-c2ccc(Cl)c3c(NS(C)(=O)=O)nn(CC(F)(F)F)c23)c([C@H](Cc2cc(F)cc(F)c2)NC(=O)Cn2nc(C(F)(F)F)c3c2C(F)(F)[C@@H]2C[C@H]32)n1)S(C)(=O)=O [Lenacapavir, reference compound] , Cmax: 903

====

assay: Plasma exposures following IV infusion alone or in combination to Sprague-Dawley rats; conditions: male, Sprague-Dawley, rat, in vivo, 1 mg/kg, Prodrug formula 4A Concentrations in Rat Plasma When Dosed alone, Prodrug formula 4-A IV infusion 1.0 mg/kg alone; 0.250 hrs; individual animals
measurement_name: concentration at 0.25 h (ng/mL)
Answers are plain numbers, in ng/mL.

Recorded result, "C#C[C@]1(COC(=O)OCc2oc(=O)oc2C)O[C@@H](n2cnc3c(N)nc(F)nc32)C[C@@H]1O" , concentration at 0.25 h: 2.27

====

test: Plasma exposures following IV infusion alone or in combination to Sprague-Dawley rats; conditions: male, Sprague-Dawley, rat, in vivo, 1 mg/kg, Lenacapavir Concentrations in Rat Plasma When Dosed Alone, Lenacapavir IV infusion 1.0 mg/kg alone; 1.00 hrs; individual animals
measurement_name: concentration at 1 h (ng/mL)
Numbers only, in ng/mL.

Recorded result, CC(C)(C#Cc1ccc(-c2ccc(Cl)c3c(NS(C)(=O)=O)nn(CC(F)(F)F)c23)c([C@H](Cc2cc(F)cc(F)c2)NC(=O)Cn2nc(C(F)(F)F)c3c2C(F)(F)[C@@H]2C[C@H]32)n1)S(C)(=O)=O [Lenacapavir, reference compound] , concentration at 1 h: 261
